- Condition Set: in ethanol, 293.15 K

Smiles Record	solubility (mole fraction)
O=[N+]([O-])c1cn[nH]c1	0.0494

---

- Condition Set: in water, 280.65 K

Smiles Record	solubility (mole fraction)
O=[N+]([O-])c1cn[nH]c1	0.00218

---

- Condition Set: in ethanol, 285.65 K

Smiles Record	solubility (mole fraction)
O=[N+]([O-])c1cn[nH]c1	0.0429

---

- Condition Set: in water, 313.15 K
Measurement Type: solubility (mole fraction)

Smiles Record	Measurement Type	Value Observed
O=[N+]([O-])c1cn[nH]c1	solubility (mole fraction)	0.00653

---

- Condition Set: in acetonitrile, 313.15 K
Measurement Type: solubility (mole fraction)

Smiles Record	Measurement Type	Value Observed
O=[N+]([O-])c1cn[nH]c1	solubility (mole fraction)	0.079

---

- Condition Set: in methanol, 318.15 K

Smiles Record	solubility (mole fraction)
O=[N+]([O-])c1cn[nH]c1	0.092

---

- Condition Set: in water, 300.65 K

Smiles Record	solubility (mole fraction)
O=[N+]([O-])c1cn[nH]c1	0.00401

---

- Condition Set: in acetonitrile, 310.65 K
Measurement Type: solubility (mole fraction)

Smiles Record	Measurement Type	Value Observed
O=[N+]([O-])c1cn[nH]c1	solubility (mole fraction)	0.0758

---

- Condition Set: in acetonitrile, 283.15 K

Smiles Record	solubility (mole fraction)
O=[N+]([O-])c1cn[nH]c1	0.0508

---

- Condition Set: in ethanol, 313.15 K

Smiles Record	solubility (mole fraction)
O=[N+]([O-])c1cn[nH]c1	0.0747

---

- Condition Set: in acetonitrile, 305.65 K

Smiles Record	solubility (mole fraction)
O=[N+]([O-])c1cn[nH]c1	0.0703

---

- Condition Set: in ethanol, 305.65 K

Smiles Record	solubility (mole fraction)
O=[N+]([O-])c1cn[nH]c1	0.0647

---

- Condition Set: in water, 303.15 K

Smiles Record	solubility (mole fraction)
O=[N+]([O-])c1cn[nH]c1	0.0044

---

- Condition Set: in ethanol, 278.15 K

Smiles Record	solubility (mole fraction)
O=[N+]([O-])c1cn[nH]c1	0.037

---

- Condition Set: in methanol, 295.65 K

Smiles Record	solubility (mole fraction)
O=[N+]([O-])c1cn[nH]c1	0.0638

---

- Condition Set: in acetonitrile, 295.65 K

Smiles Record	solubility (mole fraction)
O=[N+]([O-])c1cn[nH]c1	0.0595

---

- Condition Set: in water, 285.65 K
Measurement Type: solubility (mole fraction)

Smiles Record	Value Observed
O=[N+]([O-])c1cn[nH]c1	0.00248

---

- Condition Set: in methanol, 293.15 K
Measurement Type: solubility (mole fraction)

Smiles Record	Measurement Type	Value Observed
O=[N+]([O-])c1cn[nH]c1	solubility (mole fraction)	0.061

---

- Condition Set: in water, 283.15 K

Smiles Record	solubility (mole fraction)
O=[N+]([O-])c1cn[nH]c1	0.00231

---

- Condition Set: in ethanol, 283.15 K
Measurement Type: solubility (mole fraction)

Smiles Record	Measurement Type	Value Observed
O=[N+]([O-])c1cn[nH]c1	solubility (mole fraction)	0.0405

---

- Condition Set: in methanol, 280.65 K
Measurement Type: solubility (mole fraction)

Smiles Record	Value Observed
O=[N+]([O-])c1cn[nH]c1	0.0502

---

- Condition Set: in acetonitrile, 288.15 K

Smiles Record	solubility (mole fraction)
O=[N+]([O-])c1cn[nH]c1	0.0541

---

- Condition Set: in water, 298.15 K

Smiles Record	solubility (mole fraction)
O=[N+]([O-])c1cn[nH]c1	0.0037

---

- Condition Set: in ethanol, 298.15 K

Smiles Record	solubility (mole fraction)
O=[N+]([O-])c1cn[nH]c1	0.0549

---

- Condition Set: in acetonitrile, 308.15 K
Measurement Type: solubility (mole fraction)

Smiles Record	Value Observed
O=[N+]([O-])c1cn[nH]c1	0.0731

---

- Condition Set: in methanol, 278.15 K
Measurement Type: solubility (mole fraction)

Smiles Record	Measurement Type	Value Observed
O=[N+]([O-])c1cn[nH]c1	solubility (mole fraction)	0.0491

---

- Condition Set: in methanol, 285.65 K
Measurement Type: solubility (mole fraction)

Smiles Record	Value Observed
O=[N+]([O-])c1cn[nH]c1	0.0532

---

- Condition Set: in acetonitrile, 285.65 K

Smiles Record	solubility (mole fraction)
O=[N+]([O-])c1cn[nH]c1	0.0524

---

- Condition Set: in methanol, 288.15 K
Measurement Type: solubility (mole fraction)

Smiles Record	Measurement Type	Value Observed
O=[N+]([O-])c1cn[nH]c1	solubility (mole fraction)	0.0558

---

- Condition Set: in water, 308.15 K
Measurement Type: solubility (mole fraction)

Smiles Record	Value Observed
O=[N+]([O-])c1cn[nH]c1	0.00526
